# Percent inhibition of [3H]aldosterone binding per record follows
Biological target: Mineralocorticoid receptor (Rattus norvegicus)
Experiment: Binding affinity expressed as the percent inhibition of 2x10E-9 M [3H]aldosterone binding to the renal mineralocorticoid receptor by the presence of competing steroid (8x10E-8 M).
readout_kind: Percent inhibition of [3H]aldosterone binding

# compound, measured_result
records = [
    ("CC12CCC(O)C[C@@H]1CC[C@H]1[C@@H]3CCC4C(O)(CO)OCC43CC[C@@H]12 (stereo partly drawn)", 0),
    ("CC12CCC(O)CC1=CCC1C2CCC23COC(O)(CO)C2CCC13 (stereo not drawn)", 3.5),
    ("CC(=O)OCC1(O)OCC23CC[C@H]4[C@@H](CC[C@H]5CC(=O)CCC54C)[C@@H]2CCC13 (stereo partly drawn)", 20),
    ("CC(=O)OC[C@]12CC[C@H]3[C@@H](CC[C@H]4CC(=O)CC[C@@]43C)[C@@H]1CC[C@@H]2C(C)=O", 0),
    ("CC(=O)OCC12CCC3C(CCC4=CC(=O)CCC43C)C1CCC2C(C)=O (stereo not drawn)", 25.5),
    ("CC(=O)OCC1(O)OCC23CC[C@H]4[C@@H](CC[C@H]5CC(O)CCC54C)[C@@H]2CCC13 (stereo partly drawn)", 0),
    ("C[C@@H](O)C1CCC2C3CC=C4CC(O)CCC4(C)C3CCC21CO (stereo partly drawn)", 5),
    ("C[C@H]1OC(=O)C23CCC4C(CCC5=CC(=O)CCC54C)C2CCC13 (stereo partly drawn)", 65),
    ("CC1(O)OCC23CC[C@H]4[C@@H](CC[C@H]5CC(O)CCC54C)[C@@H]2CCC13 (stereo partly drawn)", 30),
    ("C[C@H]1OC(=O)C23CC[C@H]4[C@@H](CC[C@H]5CC(=O)CCC54C)[C@@H]2CCC13 (stereo partly drawn)", 10.5),
    ("CC(=O)OCC12CC[C@H]3[C@@H](CC[C@H]4CC(O)CCC43C)[C@@H]1CCC2C(C)=O (stereo partly drawn)", 0),
    ("CC1(O)OCC23CCC4C(CC=C5CC(O)CCC54C)C2CCC13 (stereo not drawn)", 10.1),
    ("C[C@@H](O)[C@H]1CC[C@H]2[C@@H]3CC[C@H]4CC(=O)CC[C@]4(C)[C@H]3CC[C@]12CO", 6.5),
    ("C[C@]12CC[C@H](O)C[C@@H]1CC[C@@H]1[C@@H]2CC[C@]23COC(O)(CO)[C@H]2CC[C@@H]13 (stereo partly drawn)", 19.5),
    ("C[C@H]1OC(=O)C23CCC4C(CC=C5CC(O)CCC54C)C2CCC13 (stereo partly drawn)", 12.5),
    ("CC(=O)OCC1(O)OC[C@]23CC[C@H]4[C@@H](CC[C@H]5CC(=O)CC[C@@]54C)[C@@H]2CC[C@H]13 (stereo partly drawn)", 20),
    ("C[C@@H](O)C1CC[C@H]2[C@@H]3CC[C@H]4CC(=O)CCC4(C)[C@H]3CCC12CO (stereo partly drawn)", 13),
    ("CC(=O)OCC12CC[C@H]3[C@@H](CC[C@H]4CC(=O)CCC43C)[C@@H]1CCC2C(C)=O (stereo partly drawn)", 0),
]
